System Tested: Phosphatidylinositol 4,5-bisphosphate 3-kinase catalytic subunit alpha isoform (Homo sapiens, UniProt P42336)
Sequence (P42336 whole entry, canonical isoform): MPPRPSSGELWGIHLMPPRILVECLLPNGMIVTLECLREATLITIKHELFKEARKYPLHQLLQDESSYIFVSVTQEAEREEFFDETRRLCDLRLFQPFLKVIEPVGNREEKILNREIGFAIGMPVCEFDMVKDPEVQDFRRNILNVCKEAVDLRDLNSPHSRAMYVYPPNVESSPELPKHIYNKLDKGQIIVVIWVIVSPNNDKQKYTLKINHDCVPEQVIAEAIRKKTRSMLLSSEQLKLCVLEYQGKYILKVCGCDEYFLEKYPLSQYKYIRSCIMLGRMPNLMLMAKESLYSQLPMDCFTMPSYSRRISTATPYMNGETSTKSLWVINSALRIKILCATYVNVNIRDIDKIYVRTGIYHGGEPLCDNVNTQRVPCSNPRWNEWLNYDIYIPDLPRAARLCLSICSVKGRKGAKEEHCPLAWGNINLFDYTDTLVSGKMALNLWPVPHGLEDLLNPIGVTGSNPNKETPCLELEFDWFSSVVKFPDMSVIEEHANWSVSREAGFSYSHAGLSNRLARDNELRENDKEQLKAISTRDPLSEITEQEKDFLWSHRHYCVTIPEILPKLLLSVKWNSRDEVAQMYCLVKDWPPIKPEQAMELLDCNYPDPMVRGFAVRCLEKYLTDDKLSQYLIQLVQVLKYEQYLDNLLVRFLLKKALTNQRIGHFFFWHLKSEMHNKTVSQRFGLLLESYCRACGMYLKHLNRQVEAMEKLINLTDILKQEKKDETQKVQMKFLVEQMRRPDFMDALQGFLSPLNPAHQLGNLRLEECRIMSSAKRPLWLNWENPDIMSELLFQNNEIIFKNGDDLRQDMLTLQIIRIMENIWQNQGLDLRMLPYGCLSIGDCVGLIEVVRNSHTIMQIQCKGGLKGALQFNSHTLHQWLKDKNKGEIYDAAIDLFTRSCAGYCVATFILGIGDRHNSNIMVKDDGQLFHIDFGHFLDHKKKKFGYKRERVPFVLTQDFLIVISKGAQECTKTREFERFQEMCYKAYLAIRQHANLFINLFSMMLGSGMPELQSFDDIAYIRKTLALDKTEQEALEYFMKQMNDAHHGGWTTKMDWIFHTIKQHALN
Test Protocol: Inhibition of PI3Kalpha in human MCF7 cells assessed as reduction in AKT phosphorylation after 4 hrs by ADP-Glo assay
Assay type: cell-based
pIC50: −log10 of the molar value.
Reported Property: pIC50

Sample answers from the record:
[[record]]
cpd_smiles = "COc1ncc(-c2ccc3ncc(Cl)c(=O)n3c2)cc1NS(=O)(=O)c1ccc(F)cc1F"
endpoint_result = 7.94

[[record]]
cpd_smiles = "COc1ccc(S(=O)(=O)Nc2cc(-c3ccc4nccc(=O)n4c3)cnc2OC)cc1"
endpoint_result = 7.27


A: COc1ncc(-c2ccc3nccc(=O)n3c2)cc1NS(=O)(=O)c1cc(F)ccc1F
B: COc1ncc(-c2ccc3nccc(=O)n3c2)cc1NS(=O)(=O)c1ccc(F)cc1
Hi, I'm comparing two records. Which one has the lower pIC50, A or B ? State your choice using its label.
B
(B: 7.09, A: 7.35)
